target: T1, human MSLN-FL-his protein (human, UniProt Q13421 296-580); experiment: competitive ELISA; row F8-24.14; also: test concentration or dose not given here
T1 construct: made in HEK293E cells, purified on nickel column; also called hMSLN-FL-his; human MSLN full-length protein; not shown: His tag
T1 sequence (Q13421 other isoform, or with tags, fused parts or gaps): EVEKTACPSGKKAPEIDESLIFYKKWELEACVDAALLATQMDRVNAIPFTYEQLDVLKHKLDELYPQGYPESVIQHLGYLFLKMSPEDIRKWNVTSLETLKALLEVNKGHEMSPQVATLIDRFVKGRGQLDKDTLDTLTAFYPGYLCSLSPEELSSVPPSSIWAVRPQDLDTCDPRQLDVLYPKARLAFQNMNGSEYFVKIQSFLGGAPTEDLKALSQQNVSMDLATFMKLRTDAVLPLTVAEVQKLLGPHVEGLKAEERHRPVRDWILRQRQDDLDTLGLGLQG
Listing of recorded competition rate by entry.
measurementKind: competition rate

- S009-F8-29.1 (antibody, human IgG1, kappa, V domains shown, human-murine chimeric antibody, human IgG1/kappa constant regions) VH: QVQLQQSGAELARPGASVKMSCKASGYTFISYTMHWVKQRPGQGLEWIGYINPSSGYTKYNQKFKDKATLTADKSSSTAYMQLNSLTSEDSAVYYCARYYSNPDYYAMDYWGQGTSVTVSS VL: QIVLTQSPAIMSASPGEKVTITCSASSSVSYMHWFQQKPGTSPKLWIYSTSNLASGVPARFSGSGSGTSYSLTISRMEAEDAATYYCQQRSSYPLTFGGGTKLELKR: 89.8%
- S009-F8-8.22 (antibody, human IgG1, kappa, V domains shown, human-murine chimeric antibody, human IgG1/kappa constant regions) VH: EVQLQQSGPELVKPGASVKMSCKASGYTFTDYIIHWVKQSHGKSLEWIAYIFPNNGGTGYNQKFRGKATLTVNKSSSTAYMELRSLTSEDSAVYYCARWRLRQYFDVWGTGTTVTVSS VL: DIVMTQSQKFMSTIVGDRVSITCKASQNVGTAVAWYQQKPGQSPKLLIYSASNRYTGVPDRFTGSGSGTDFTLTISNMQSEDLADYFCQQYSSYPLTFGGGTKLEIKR: 91.1%
- S009-F8-24.14 (antibody, human IgG1, kappa, V domains shown, human-murine chimeric antibody, human IgG1/kappa constant regions) VH: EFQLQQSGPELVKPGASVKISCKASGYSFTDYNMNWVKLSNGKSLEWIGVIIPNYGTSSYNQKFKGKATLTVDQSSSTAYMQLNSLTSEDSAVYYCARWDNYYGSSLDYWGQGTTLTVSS VL: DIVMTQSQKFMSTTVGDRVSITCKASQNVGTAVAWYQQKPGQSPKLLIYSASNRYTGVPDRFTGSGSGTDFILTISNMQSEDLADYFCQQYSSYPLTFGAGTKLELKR: 77%

Data provenance: patent US20250250357A1
